Assay: qHTS assay to identify small molecule antagonists of the sonic hedgehog signaling (Shh) pathway - cell viability counter screen (AID 1259367); further: nearly all actives have a fitted effect of over 55% in size
Details: NIH/3T3 Gli1-Luc viability, CellTiter-Fluor, 24 h; series mostly up to 92.4 µM
Records with an inconclusive call do not appear. Active and inactive are the calls of the source. The call rests on the fitted dose curve; in most records, active means well fitted cell-killing curve with a large enough effect in the repeat runs; inconclusive means weak or mixed curves, or effect the other way; inactive means no such curve, though single readings can be large or run the other way.
Permitted responses: Y = active, N = inactive

Here are 6 compounds together with their reported answers.
compound	label
Cc1ccc(OP(=O)(Oc2ccc(C)cc2)Oc2ccc(C)cc2)cc1	N
Nc1c(Cl)cc([N+](=O)[O-])cc1Cl	N
Nc1ccc(-c2ccccc2)cc1	N
CCCCCCCCC(=O)NCc1ccc(O)c(OC)c1	N
Nn1cnnc1	N
CCc1cccc(CC)c1N(COC)C(=O)CCl	Y

Ask: Returns: the outcome recorded for CCC(CC)Nc1c([N+](=O)[O-])cc(C)c(C)c1[N+](=O)[O-] in this assay.
Reply: N

Ask: Another compound: NC(=S)Nc1ccccc1
Reply: N

Ask: Another compound: Brc1ccc(Oc2cc(Br)c(Br)cc2Br)c(Br)c1
Reply: N

Ask: Another compound: N#CC(Br)Br
Reply: N

Ask: Another compound: Nc1ccc(Cl)cc1N
Reply: N

Ask: Another compound: COC(=O)c1sccc1S(=O)(=O)NC(=O)Nc1nc(C)nc(OC)n1
Reply: N

Ask: Another compound: c1nc[nH]n1
Reply: N

Ask: Another compound: Nc1ccc(-c2ccc(N)c(N)c2)cc1N
Reply: N

Ask: Another compound: CC(C)(C)c1ccccc1O
Reply: N

Ask: Another compound: CCCCN(CCCC)N=O
Reply: N

Ask: Another compound: O=C(O)CC[N+](=O)[O-]
Reply: N

Ask: Another compound: C[C@]12CCC(=O)C(O)=C1CC[C@@H]1[C@@H]2CC[C@]2(C)C(=O)CC[C@@H]12
Reply: N

* * *

Biological target: Nuclear receptor subfamily 1 group I member 3 (Homo sapiens) (UniProt Q14994)
Sequence (Q14994 whole entry, looked up): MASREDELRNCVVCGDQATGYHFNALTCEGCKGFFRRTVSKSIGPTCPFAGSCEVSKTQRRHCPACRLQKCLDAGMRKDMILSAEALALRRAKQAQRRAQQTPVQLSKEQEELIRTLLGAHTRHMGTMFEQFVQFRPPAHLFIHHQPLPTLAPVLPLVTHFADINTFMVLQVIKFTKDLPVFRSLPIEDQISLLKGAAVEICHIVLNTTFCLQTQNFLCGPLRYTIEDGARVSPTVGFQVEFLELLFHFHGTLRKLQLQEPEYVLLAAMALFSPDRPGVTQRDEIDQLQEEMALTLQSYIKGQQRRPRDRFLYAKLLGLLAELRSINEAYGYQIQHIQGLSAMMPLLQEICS
Assay: qHTS assay to identify small molecule agonists of the constitutive androstane receptor (CAR) signaling pathway (AID 1224839); further: nearly all actives have a fitted effect of over 15% in size;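 on activation: HepG2 cells stably carrying human CAR and a CYP2B6 luciferase reporter; on the % scale 0 is the no-effect control and ±100 the full control effect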
Conditions: HepG2 hCAR CYP2B6-luciferase, agonist mode, 24 h; series mostly up to 92.4 µM
Description: National Center for Advancing Translational Sciences [NCATS] NIH Chemical Genomics Center [NCGC] U.S. Environmental Protection Agency [EPA] National Institutes of Environmental Health Sciences [NIEHS] National Toxicology Program [NTP] […] Assay Protocol Summary: A double-stable (hCAR and CYP2B6-2.2kb) transfected cell line, derived from human hepatoma (HepG2) cells, was utilized for the duration of the quantitative high-throughput screens. […]
Inconclusive results are not listed. Calls of active or inactive are those of the source. The call rests on the fitted dose curve; in most records, active means well fitted activation curve with a large enough effect in the repeat runs; inconclusive means weak or mixed curves; inactive means no such curve, though single readings can be large or run the other way.
Permitted responses: active, inactive

compound	label
CNC(=O)Oc1cccc2c1OC(C)(C)O2	inactive
N#Cc1cc(Br)c(O)c(Br)c1	inactive

Ask: Returns: the outcome recorded for CCCCC(CC)COC(=O)Cl (stereo not drawn) in this assay.
Reply: inactive

Ask: Another compound: c1cc(OCC2CO2)ccc1Cc1ccc(OCC2CO2)cc1 (stereo not drawn)
Reply: inactive

Ask: Another compound: CCCCNC(=O)n1c(NC(=O)OC)nc2ccccc21
Reply: active

* * *

Experiment: qHTS assay to identify small molecule agonists of the farnesoid-X-receptor (FXR) signaling pathway - cell viability counter screen (AID 743218); further: on the % scale 0 is the no-effect control and ±100 the full control effect; nearly all actives have a fitted effect of over 45% in size
Settings: FXR-bla HEK293T viability, CellTiter-Glo luminescence, 16 h; series mostly up to 62.6 µM
Results filed as inconclusive are left out. Activity calls are given as the source filed them. Calls come from the whole dose curve; as a rule, active = well fitted cell-killing curve with a large enough effect in the repeat runs; inconclusive = weak or mixed curves, or effect the other way; inactive = no such curve, though single readings can be large or run the other way.
Permitted responses: active, inactive

Here are 3 compounds together with their reported answers.
compound	label
Cc1c(COC(=O)[C@@H]2[C@H](/C=C(\Cl)C(F)(F)F)C2(C)C)cccc1-c1ccccc1	inactive
CCCCN(CC)c1c([N+](=O)[O-])cc(C(F)(F)F)cc1[N+](=O)[O-]	inactive
Cc1ccc2c(c1N)C(=O)c1ccccc1C2=O	inactive

Ask: Returns: the outcome recorded for Brc1ccc(Oc2cc(Br)c(Br)cc2Br)c(Br)c1 in this assay.
Reply: inactive

* * *

Molecular target: Progesterone receptor (Homo sapiens) (UniProt P06401)
Sequence (P06401 whole entry, looked up): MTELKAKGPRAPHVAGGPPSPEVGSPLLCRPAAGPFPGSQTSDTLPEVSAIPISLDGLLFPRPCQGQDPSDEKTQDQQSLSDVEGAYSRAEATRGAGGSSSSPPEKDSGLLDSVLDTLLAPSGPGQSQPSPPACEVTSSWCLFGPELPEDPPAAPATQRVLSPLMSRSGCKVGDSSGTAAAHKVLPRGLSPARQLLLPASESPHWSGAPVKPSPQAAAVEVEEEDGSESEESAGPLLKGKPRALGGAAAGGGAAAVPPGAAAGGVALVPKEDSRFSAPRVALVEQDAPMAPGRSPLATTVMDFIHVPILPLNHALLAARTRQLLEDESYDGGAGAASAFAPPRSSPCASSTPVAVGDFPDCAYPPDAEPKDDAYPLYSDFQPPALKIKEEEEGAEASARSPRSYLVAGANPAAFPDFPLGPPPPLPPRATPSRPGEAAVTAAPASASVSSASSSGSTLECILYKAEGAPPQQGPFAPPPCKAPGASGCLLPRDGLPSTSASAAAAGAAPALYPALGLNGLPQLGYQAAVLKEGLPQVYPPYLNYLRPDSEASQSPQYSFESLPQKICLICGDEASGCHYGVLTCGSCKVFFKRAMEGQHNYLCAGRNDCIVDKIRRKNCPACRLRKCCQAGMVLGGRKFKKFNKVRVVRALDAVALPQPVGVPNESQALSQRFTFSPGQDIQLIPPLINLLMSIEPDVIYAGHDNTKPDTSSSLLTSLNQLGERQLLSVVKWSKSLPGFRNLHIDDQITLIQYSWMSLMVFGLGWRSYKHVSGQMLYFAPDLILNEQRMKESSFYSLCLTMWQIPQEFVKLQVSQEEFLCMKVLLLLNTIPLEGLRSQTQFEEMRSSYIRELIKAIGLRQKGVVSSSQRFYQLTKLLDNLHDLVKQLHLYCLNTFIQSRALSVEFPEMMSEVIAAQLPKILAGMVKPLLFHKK
Assay: qHTS assay to identify small molecule antagonists of the progesterone receptor (PR) signaling pathway (AID 1346795)
Details: PR-UAS-bla HEK293T, beta-lactamase FRET ratio, 16 h; series mostly up to 92.4 µM
Inconclusive results are not listed. The source made the active and inactive calls. The call rests on the fitted dose curve; in most records, active means well fitted inhibition curve with a large enough effect in the signal ratio in the repeat runs (not every such curve was filed as active); inconclusive means weak or mixed curves; inactive means flat fitted curve, though single readings scatter; the % refers to the signal ratio.
Permitted responses: active, inactive

Here are 8 molecules together with their reported answers.
molecule	label
CCCCC(CC)COC(=O)c1ccc(C(=O)OCC(CC)CCCC)c(C(=O)OCC(CC)CCCC)c1 (stereo unspecified)	inactive
CCC(C)(c1ccc(O)cc1)c1ccc(O)cc1	active
CCCCCCCCCCCOC(=O)c1ccccc1C(=O)OCCCCCCCCCCC	inactive
N#CC(Br)Br	inactive
Nc1ccncc1	inactive
CCCCN(CCCC)N=O	inactive
Cc1cc(Cl)ccc1OCCCC(=O)O	inactive
Nn1cnnc1	inactive

Ask: Returns: the outcome recorded for NC(=S)Nc1ccccc1 in this assay.
Reply: inactive

Ask: Another molecule: CC(O)CCO (stereo unspecified)
Reply: inactive

* * *

Assay: qHTS assay to identify small molecule agonists of the estrogen receptor beta (ER-beta) signaling pathway - cell viability counter screen (AID 1259380); further: nearly all actives have a fitted effect of over 30% in size
Settings: ER-beta-bla HEK293T viability, CellTiter-Glo luminescence, 16 h; series mostly up to 92.4 µM
Text: National Center for Advancing Translational Sciences [NCATS] NIH Chemical Genomics Center [NCGC] U.S. Environmental Protection Agency [EPA] National Institutes of Environmental Health Sciences [NIEHS] National Toxicology Program [NTP] U.S. Food and Drug Administration [FDA] Estrogen receptor (ER), a nuclear hormone receptor, plays an important role in development, metabolic homeostasis and reproduction. […]
Results filed as inconclusive are left out. Calls of active or inactive are those of the source. Calls follow the shape of the dose curve; as a rule, active = well fitted cell-killing curve with a large enough effect in the repeat runs; inconclusive = weak or mixed curves, or effect the other way; inactive = flat fitted curve, though single readings scatter.
Permitted responses: active, inactive

Here are 3 molecules together with their reported answers.
molecule	label
C=CC(=O)OCCO	inactive
CCN(CC)N=O	inactive
NNC(N)=S	active

Ask: Returns: the outcome recorded for CC(C)(c1cc(Cl)c(O)c(Cl)c1)c1cc(Cl)c(O)c(Cl)c1 in this assay.
Reply: inactive

Ask: Another molecule: Nc1ccncc1
Reply: inactive

Ask: Another molecule: CCN(CC)C(=O)/C(Cl)=C(\C)OP(=O)(OC)OC
Reply: inactive

Ask: Another molecule: CCCCOCCOP(=O)(OCCOCCCC)OCCOCCCC
Reply: active

Ask: Another molecule: Cc1cccc(N)c1N
Reply: inactive

Ask: Another molecule: CCCCC(CC)COC(=O)Cl (stereo unspecified)
Reply: inactive

Ask: Another molecule: c1ccc(NNc2ccccc2)cc1
Reply: inactive

Ask: Another molecule: C#CCOS(=O)OC1CCCCC1Oc1ccc(C(C)(C)C)cc1 (stereo unspecified)
Reply: active

Ask: Another molecule: Nc1ccc(Cl)c(Cl)c1
Reply: inactive

Ask: Another molecule: CCN(N=O)C(N)=O
Reply: inactive

Ask: Another molecule: Clc1nc(Cl)nc(Cl)n1
Reply: inactive

Ask: Another molecule: c1cc(OCC2CO2)ccc1Cc1ccc(OCC2CO2)cc1 (stereo unspecified)
Reply: active

Ask: Another molecule: Cc1cc(C)cc(C)c1
Reply: inactive

* * *

Assay: A CellTox Green Cytotoxicity Assay to monitor cytotoxicity in HepG2 cells - 32 hour (AID 1224883); further: nearly all actives have a fitted effect of over 50% in size
Conditions: CellTox Green fluorescence; series mostly up to 76.8 µM
Records with an inconclusive call do not appear. Calls of active or inactive are those of the source. Calls come from the whole dose curve; as a rule, active = well fitted activation curve with a large enough effect in the repeat runs; inconclusive = weak or mixed curves; inactive = flat fitted curve, though single readings scatter.
Permitted responses: active, inactive

molecule	label
CN(C)C(=O)Nc1ccc(Cl)cc1	inactive

Ask: Returns: the outcome recorded for CCC(=O)O[C@H]1CC[C@H]2[C@@H]3CCC4=CC(=O)CC[C@]4(C)[C@H]3CC[C@]12C in this assay.
Reply: active

Ask: Another molecule: CCC(C)c1ccc(O)cc1 (stereo not drawn)
Reply: active

* * *

Assay: qHTS assay for small molecule agonists of the p53 signaling pathway - cell viability (AID 651633);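 further: p53RE-bla HCT reporter cells with a stable beta-lactamase p53 reporter; on the % scale 0 is the no-effect control and ±100 the full control effect; nearly all actives have a fitted effect of over 30% in size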
Conditions: p53RE-bla HCT-116 viability, ATP luminescence, 16 h; series mostly up to 83.3 µM
Records with an inconclusive call do not appear. Active and inactive are the calls of the source. Calls come from the whole dose curve.
Permitted responses: 1 (yes) for active, 0 (no) for inactive

Ask: Returns: the outcome recorded for Nc1cccnc1 in this assay.
Reply: 0 (no)

Ask: Another compound: CC(C)(C)c1ccccc1O
Reply: 0 (no)

Ask: Another compound: COP(=S)(OC)Oc1cc(Cl)c(Cl)cc1Cl
Reply: 0 (no)

* * *

Assay: qHTS assay to identify small molecule antagonists of the androgen receptor (AR) signaling pathway using the MDA cell line - cell viability counter screen (AID 743041; further: on the % scale 0 is the no-effect control and ±100 the full control effect; nearly all actives have a fitted effect of over 45% in size)
Conditions: MDA-kb2 viability, CellTiter-Fluor, 16 h, cells co-treated with R1881 androgen agonist; series mostly up to 70.3 µM
Results filed as inconclusive are left out. Calls of active or inactive are those of the source. Calls come from the whole dose curve; as a rule, active = well fitted cell-killing curve with a large enough effect in the repeat runs; inconclusive = weak or mixed curves, or effect the other way; inactive = flat fitted curve, though single readings scatter.
Permitted responses: class 1 for active, class 0 for inactive

Here are 8 compounds together with their reported answers.
compound	label
Cc1cc(Cl)ccc1OCCCC(=O)O	class 0
CNC(=O)Oc1cccc2c1OC(C)(C)O2	class 0
O=C(O)C(F)(F)C(F)(F)C(F)(F)C(F)(F)C(F)(F)C(F)(F)C(F)(F)F	class 0
CCN(CC)N=O	class 0
COP(=S)(OC)Oc1cc(Cl)c(Cl)cc1Cl	class 0
CCCCCCCCCCCOC(=O)c1ccccc1C(=O)OCCCCCCCCCCC	class 0
C=C(C)C(=O)OCC1CO1 (configuration not stated)	class 0
C[C@]12CCC(=O)C(O)=C1CC[C@@H]1[C@@H]2CC[C@]2(C)C(=O)CC[C@@H]12	class 0

Ask: Returns: the outcome recorded for CCC(=O)O[C@H]1CC[C@H]2[C@@H]3CCC4=CC(=O)CC[C@]4(C)[C@H]3CC[C@]12C in this assay.
Reply: class 0

Ask: Another compound: CC1(C)C(C=C(Cl)Cl)C1C(=O)OC(C#N)c1cccc(Oc2ccccc2)c1 (configuration not stated)
Reply: class 0

Ask: Another compound: CN(C)c1ccc(C(=O)c2ccc(N(C)C)cc2)cc1
Reply: class 0

Ask: Another compound: NNC(=S)NN
Reply: class 0

Ask: Another compound: Oc1cc(Cl)c(Cl)cc1Cl
Reply: class 0

Ask: Another compound: N[C@@H](Cc1ccc(N(CCCl)CCCl)cc1)C(=O)O
Reply: class 0

Ask: Another compound: CCCCCCCCOC(=O)c1ccccc1C(=O)OCCCCCCCC
Reply: class 0
